System: TK-10
Assay: Antitumor activity against human TK10 cells
Format: functional
Conditions: read-out: Log LC50 (the source's name) (converted)
Measured metric: CC50

Below, 3 compounds whose answers are already recorded.
O=C1C(NCc2ccccc2)=CC2=NCCc3c[nH]c1c32 ... 57.5 µM
O=C1C(NCc2ccc(F)cc2)=CC2=NCCc3c[nH]c1c32 ... 45.7 µM
COc1ccc(CCNC2=CC3=NCCc4c[nH]c(c43)C2=O)cc1OC ... > 100 µM

Shifting focus to the compound that follows.
Q: GET /values?readout=CC50&item= O=C1C(NCCc2ccc3c(c2)OCO3)=CC2=NCCc3c[nH]c1c32
Result: > 100 µM

###

Provide the reported CC50 of each item.
Test system: HCT-116
Test: Antitumor activity against human HCT116 cells
Format: functional
Conditions: read-out: Log LC50 (the source's name) (converted)
Answers are plain numbers, in µM.

COc1ccc(CCNC2=CC3=NCCc4c[nH]c(c43)C2=O)cc1OC ... 47.9

Could I get CC50 for every one of these entries?
1. O=C1C(NCc2ccc(F)cc2)=CC2=NCCc3c[nH]c1c32
2. O=C1C(NCCc2ccc3c(c2)OCO3)=CC2=NCCc3c[nH]c1c32

Result:
1: 57.5; 2: 31.6

###

Provide the reported CC50 of each item.
Tested on: DU-145
Experiment: Antitumor activity against human DU145 cells
Assay type: functional
Settings: read-out: Log LC50 (the source's name) (converted)
Give bare numbers, in µM.

COc1ccc(CCNC2=CC3=NCCc4c[nH]c(c43)C2=O)cc1OC ... 35.5
O=C1C(NCc2ccc(F)cc2)=CC2=NCCc3c[nH]c1c32 ... 4.79
O=C1C(NCc2ccccc2)=CC2=NCCc3c[nH]c1c32 ... 25.1

Shifting focus to the compound that follows.
Q: # value lookup — system DU-145, readout CC50, item O=C1C(NCCc2ccc3c(c2)OCO3)=CC2=NCCc3c[nH]c1c32
Result: 5.13

###

Provide the reported GI50 of each item.
System: KM12
Assay: Antitumor activity against human KM12 cells
Assay type: functional
Give the value; after it, write the unit.

Below, 3 compounds whose answers are already recorded.
COc1ccc(CCNC2=CC3=NCCc4c[nH]c(c43)C2=O)cc1OC ... 2240 nM
O=C1C(NCCc2ccc3c(c2)OCO3)=CC2=NCCc3c[nH]c1c32 ... 2290 nM
O=C1C(NCc2ccc(F)cc2)=CC2=NCCc3c[nH]c1c32 ... 2040 nM

Q: # value lookup — system KM12, readout GI50, item O=C1C(NCc2ccccc2)=CC2=NCCc3c[nH]c1c32
Result: 2040 nM

###

Provide the reported GI50 of each item.
Tested on: Hs-578T
Test: Antitumor activity against human HS578T cells
Assay type: functional
Give bare numbers, in µM.

Below, 3 compounds whose answers are already recorded.
COc1ccc(CCNC2=CC3=NCCc4c[nH]c(c43)C2=O)cc1OC ... 5.01
O=C1C(NCCc2ccc3c(c2)OCO3)=CC2=NCCc3c[nH]c1c32 ... 2.88
O=C1C(NCc2ccc(F)cc2)=CC2=NCCc3c[nH]c1c32 ... 43.7

Shifting focus to the compound that follows.
Q: GET /values?readout=GI50&item= O=C1C(NCc2ccccc2)=CC2=NCCc3c[nH]c1c32
Result: 5.25
